- test.details: gradient 5% acetonitrile 3 min, to 50% in 2 min, to 85% in 15 min, held 3 min, 100 µL/min
- measurement.conditions: column: Zorbax Extend-C18 2.1 x 50 mm; eluents: water / acetonitrile, 0.1% formic acid
endpoint: RP-LC retention time (s)
# value in s; strip the unit string

Answered cases to consult:
compound=C=CCNC(=O)c1cn(-c2cc(-c3nc(CC)no3)ccn2)cn1 endpoint="RP-LC retention time" measured_value=646
compound="O=S(=O)(c1cccs1)N1CCCCC1c1nncn1CC1CC1 (stereo not drawn)" endpoint="RP-LC retention time" measured_value=752

Next compound, please.
# get_value(readout='RP-LC retention time', item= Cc1[nH]c(C)c(S(=O)(=O)N2CCC(C(=O)NC3CCCCCCC3)CC2)c1C(=O)N1CCCC1 )
745
